System: SUDV (glycoprotein, VSV pseudotype)
Assay: microbe, parasite or virus in culture
Assay type: cell-based, Sudan ebolavirus
Conditions: Vesicular stomatitis virus, Vero, 24 h, read-out: EC50 Pseudotype Assays SUDV
READOUT TYPE: EC50 (nM)

CC12CC3CC(C(=O)N4CC[C@@H](N)C4)(C1)CC(c1ccccc1)(C3)C2 (mixture of isomers) [Example A55] :: 370
CC12CC3CC(C(=O)N4CCC[C@H](N)C4)(C1)CC(c1ccccc1)(C3)C2 (mixture of isomers) [Example A56] :: 60
C[C@@]12CC3CC(C(=O)N4CCC(N)C5(CC5)C4)(C1)C[C@](c1ccccc1)(C3)C2 (some centres unmarked) [Example C9] :: 620
C[C@@]12CC3CC(C(=O)NC4CCNCC4)(CC(c4ccccc4)(C3)C1)C2 [Example B1] :: 250
CC12CC3CC(C(=O)N4CC5(CNC5)C4)(C1)CC(c1ccccc1)(C3)C2 (racemic) [Example A47] :: 335
CC12CC3CC(CN[C@H]4CC[C@H](N)CC4)(C1)CC(c1ccccc1)(C3)C2 (some centres unmarked) [Example A65] :: 180
CC12CC3CC(C(=O)N4CC5(CCNC5)C4)(C1)CC(c1ccccc1)(C3)C2 (racemic) [Example A49] :: 200
CC1CN(C(=O)C23CC4CC(C)(C2)CC(c2ccccc2)(C4)C3)CCC1N (racemic) [Example A39] :: 210

Values were extracted from patent US11548893B2.
